System: SK-MEL-5 melanoma
Assay: NCI-60 one-dose screen, 48 h
Conditions: 10 µM unless noted
Description: Growth inhibition of the SK-MEL-5 human tumor cell line is measured as a screen for anti-cancer activity. Cells are grown in 96 well plates and exposed to the test compound for 48 hours. Compounds are tested at a single concentration, which is 10^-5 M for most compounds. The reported endpoint is percent growth (GI% or GIPRCNT), where numbers from 0 - 100% represent growth inhibition, and numbers from -100% - 0 represent cell death. For example, a value of 40 represents 60% growth inhibition. […]
The panel holds about 83,000 compounds, 20% with a hit somewhere; the sample as a whole holds those more often. Active and inactive are the calls of the source. How the source made its calls: active means growth percent below 10; inactive means the rest.
Outcome field: choose from y for active, n for inactive

Task item: Answer briefly: the call reported for N#Cc1c(-c2cccs2)c(C#N)c(=O)n(Cc2nc3ccccc3[nH]2)c1N in this assay.
Reply: n

Task item: Answer briefly: the call reported for CC(=O)N(O)CCCCCNC(=O)CCC(=O)N(O)CCCCCNC(=O)CCC(=O)N(O)CCCCCN(CCCCCCCCCC[P+](c1ccccc1)(c1ccccc1)c1ccccc1)CCCCCCCCCC[P+](c1ccccc1)(c1ccccc1)c1ccccc1 in this assay.
Reply: y

Task item: Answer briefly: the call reported for CCc1nnc(NC(=O)c2cc(-c3ccc(Cl)cc3Cl)oc2C)s1 in this assay.
Reply: n

Please find the next compound below.
Task item: Answer briefly: the call reported for Clc1ccc2c(N/N=C/c3c[nH]c4ccccc34)ccnc2c1 in this assay.
Reply: y

###

system: RPMI-8226 leukemia; experiment: NCI-60 one-dose screen, 48 h (100 = growth as untreated, 0 = no growth, -100 = all killed); conditions: 10 µM unless noted
This is part of a sample that, as a whole, favours compounds with a hit. Of some 83,000 tested, about 20% had one in any assay.
measure_name: growth (%)
The answer is to be given in %; state only the numeric part.

Task item: What does the record list as growth for COc1cccc(N2CCN(C3=C(Cl)C(=O)c4ncccc4C3=O)CC2)c1 ?
Reply: 55.8

Task item: What does the record list as growth for O=C(/C=C/c1ccccc1Cl)Nc1ncc(Cc2cc(Cl)ccc2Cl)s1 ?
Reply: 19.7

Task item: What does the record list as growth for CN(C)CCNc1ccc2ncc(C#Cc3cncc(C(=O)Nc4ccc(CN5CCN(C)CC5)c(C(F)(F)F)c4)c3)n2n1 ?
Reply: -11.2

Task item: What does the record list as growth for C#Cc1nc(/C=C\CCCCCCC(=O)NO)cs1 ?
Reply: -1.07

Task item: What does the record list as growth for O=C1[C@H]2Cc3c([nH]c4ccccc34)[C@H](c3ccc(Cl)cc3)N2C(=O)CN1C1CCN(CC2CCCCC2)CC1 ?
Reply: 23.4

Task item: What does the record list as growth for CC[C@]12C=CCN3CC[C@@]4(c5ccc(OC)cc5N(C)[C@H]4[C@@](O)(C(=O)OC)[C@@H]1OC(=O)CCN1CCc4ccccc4C1)[C@@H]32 ?
Reply: 78.4

Task item: What does the record list as growth for Cc1ccc2c(n1)C(=O)C(Cl)=C(Nc1ccc(C#N)cc1)C2=O ?
Reply: 55.1

Task item: What does the record list as growth for O=C(CSc1nnc(-c2cccs2)n1-c1ccccc1)Nc1ccccc1F ?
Reply: 88.7

Now consider the entry below.
Task item: What does the record list as growth for O=C(/C=C/c1cccc(F)c1)c1cccc(OCCCOc2cccc(C(=O)/C=C/c3cccc(F)c3)c2)c1 ?
Reply: -15.7
